Entry source: patent US12146004B2

- Test system: Klebsiella pneumoniae
- Type: cell-based
recorded-endpoint: MIC K. pneumoniae ATCC 4352 (µg/mL)
Answer with a number only, understood to be in µg/mL.

Task: For the compound CC(C)CCC(CCN)C(=O)N[C@H](C(=O)N[C@@H](CN)C(=O)N[C@H]1CCNC(=O)[C@H]([C@@H](C)O)NC(=O)[C@H](CCN)NC(=O)[C@H](CCN)NC(=O)[C@H](CC(C)C)NC(=O)[C@@H](CC2CCCCC2)NC(=O)[C@H](CCN)NC1=O)[C@@H](C)O (single isomer, unassigned; isomer 2) [Example 80] , what MIC K. pneumoniae ATCC 4352 is on record?
Output: 0.06

Now for a further compound.
Task: For the compound CC(C)C[C@@H]1NC(=O)[C@@H](CC2CCCCC2)NC(=O)[C@H](CCN)NC(=O)[C@@H](NC(=O)[C@H](CN)NC(=O)[C@@H](NC(=O)C(CN)Cc2ccccc2)C(C)O)CCNC(=O)[C@H]([C@@H](C)O)NC(=O)[C@H](CCN)NC(=O)[C@H](CCN)NC1=O (single isomer, unassigned; isomer 2) [Example 34] , what MIC K. pneumoniae ATCC 4352 is on record?
Output: 0.125

----------
Readings of MIC P. aeruginosa 068 for the listed molecules
- Test system: Pseudomonas aeruginosa
- Type: cell-based
Answer with a number only, understood to be in µg/mL.

Task: Look up MIC P. aeruginosa 068 with Pseudomonas aeruginosa for this molecule: CC(C)C[C@@H]1NC(=O)[C@@H](CC2CCCCC2)NC(=O)[C@H](CCN)NC(=O)[C@@H](NC(=O)[C@H](CCN)NC(=O)[C@@H](NC(=O)C(CCN)c2cccc(Cl)c2)[C@@H](C)O)CCNC(=O)[C@H]([C@@H](C)O)NC(=O)[C@H](CCN)NC(=O)[C@H](CCN)NC1=O (single isomer, unassigned; isomer 2)
Output: 4

Now for a further molecule.
Task: Look up MIC P. aeruginosa 068 with Pseudomonas aeruginosa for this molecule: CC(C)C[C@@H]1NC(=O)[C@@H](CC2CCCCC2)NC(=O)[C@H](CCN)NC(=O)[C@@H](NC(=O)[C@H](CN)NC(=O)[C@@H](NC(=O)C(CCN)c2ccc(F)cc2)C(C)O)CCNC(=O)[C@H]([C@@H](C)O)NC(=O)[C@H](CCN)NC(=O)[C@H](CCN)NC1=O (single isomer, unassigned; isomer 2)
Output: 2

----------
Readings of MIC K. pneumoniae ATCC 4352 for the listed compounds
- Test system: Klebsiella pneumoniae
- Type: cell-based
Bridge positions count the residues as written; N and C are the ends. Square brackets hold non-standard residues; d marks the D form. Peptide text beside a SMILES is read from it. * marks the point of attachment. ξ: configuration not given here. dBip = N[C@H](Cc1ccc(-c2ccccc2)cc1)C(=O)O; Octanoyl(6-Me) = CCC(C)CCCCC(=O)*; Thr(3ξ) = CC(O)[C@H](N)C(=O)O; X1 = CC(C)CN1CCNC[C@H]1C(=O)*; Dab = NCC[C@H](N)C(=O)O; Dap = NC[C@H](N)C(=O)O
Answer with a number only, understood to be in µg/mL.

Task: For the compound CC(C)C[C@@H]1NC(=O)[C@@H](CC2CCCCC2)NC(=O)[C@H](CCN)NC(=O)[C@@H](NC(=O)[C@H](CN)NC(=O)[C@@H](NC(=O)C(CCN)Cc2ccccc2)C(C)O)CCNC(=O)[C@H]([C@@H](C)O)NC(=O)[C@H](CCN)NC(=O)[C@H](CCN)NC1=O (single isomer, unassigned; isomer 2) [Example 35] , what MIC K. pneumoniae ATCC 4352 is on record?
Output: 0.125

Task: For the compound CC(C)C[C@@H]1NC(=O)[C@@H](Cc2ccc(-c3ccccc3)cc2)NC(=O)[C@H](CCN)NC(=O)[C@@H](NC(=O)[C@H](CN)NC(=O)[C@@H](NC(=O)[C@@H]2CNCCN2CC(C)C)C(C)O)CCNC(=O)[C@H]([C@@H](C)O)NC(=O)[C@H](CCN)NC(=O)[C@H](CCN)NC1=O (stereo partly drawn) [Example 5] (X1-[Thr(3ξ)][Dap][Dab][Dab][dBip]L[Dab][Dab]T; lactam 3-C) , what MIC K. pneumoniae ATCC 4352 is on record?
Output: 0.25

Task: For the compound CC(C)C[C@@H]1NC(=O)[C@@H](CC2CCCCC2)NC(=O)[C@H](CCN)NC(=O)[C@@H](NC(=O)[C@H](CCN)NC(=O)[C@@H](NC(=O)C(CCN)C2CCCCC2)[C@@H](C)O)CCNC(=O)[C@H]([C@@H](C)O)NC(=O)[C@H](CCN)NC(=O)[C@H](CCN)NC1=O (single isomer, unassigned; isomer 2) [Example 69] , what MIC K. pneumoniae ATCC 4352 is on record?
Output: 0.25

Task: For the compound CC(C)CC1CNCC(C(=O)N[C@H](C(=O)N[C@@H](CN)C(=O)N[C@H]2CCNC(=O)[C@H]([C@@H](C)O)NC(=O)[C@H](CCN)NC(=O)[C@H](CCN)NC(=O)[C@H](CC(C)C)NC(=O)[C@@H](Cc3ccc(Br)cc3)NC(=O)[C@H](CCN)NC2=O)C(C)O)C1 (single isomer, unassigned; isomer 1) [Example 11] , what MIC K. pneumoniae ATCC 4352 is on record?
Output: 1

Task: For the compound CCC(C)CCCCC(=O)N[C@@H](CCN)C(=O)N[C@H](C(=O)N[C@@H](CCN)C(=O)N[C@H]1CCNC(=O)[C@H]([C@@H](C)O)NC(=O)[C@H](CCN)NC(=O)[C@H](CCN)NC(=O)[C@H](CC(C)C)NC(=O)[C@@H](Cc2ccc(-c3ccccc3)cc2)NC(=O)[C@H](CCN)NC1=O)C(C)O (stereo partly drawn) [Example C3, reference compound] ({Octanoyl(6-Me)}-[Dab][Thr(3ξ)][Dab][Dab][Dab][dBip]L[Dab][Dab]T; lactam 4-C) , what MIC K. pneumoniae ATCC 4352 is on record?
Output: 0.5

Now for a further compound.
Task: For the compound CC(C)C[C@@H]1NC(=O)[C@@H](Cc2ccccc2)NC(=O)[C@H](CCN)NC(=O)[C@@H](NC(=O)[C@H](CN)NC(=O)[C@@H](NC(=O)[C@@H]2CNCCN2CC(C)C)C(C)O)CCNC(=O)[C@H]([C@@H](C)O)NC(=O)[C@H](CCN)NC(=O)[C@H](CCN)NC1=O (stereo partly drawn) [Example C2, reference compound] (X1-[Thr(3ξ)][Dap][Dab][Dab][dF]L[Dab][Dab]T; lactam 3-C) , what MIC K. pneumoniae ATCC 4352 is on record?
Output: 0.125
